For reference, Permeability of each amino acid measured on abdominal skin of male hairless mice:
Please reply with the bare figure in % and do not write the unit itself.

> print(dat)
            chemical.smiles  observed
1    NC(=O)CC[C@H](N)C(=O)O      10.2
2  N[C@@H](Cc1ccccc1)C(=O)O      15.1
3    N[C@@H](CC(=O)O)C(=O)O      19.1
4       NCCCC[C@H](N)C(=O)O      19.6

Record N[C@@H](CO)C(=O)O has abdominal skin of male hairless mice Permeability of each amino acid equal to 15.2

---

Test system: abdominal skin of male hairless mice
Definition: the class of an entry is the range in bottom end (below 10%), midrange (10% to below 20%), top end (20% or more) that contains its Permeability of each amino acid.

Take a look at these entries with their results.
> print(dat)
                                compound  assigned.category
1  CC[C@H](C)[C@H](N)C(=O)O [Isoleucine]            top end
2           O=C(O)[C@@H]1CCCN1 [Proline]         bottom end
3         CC(C)C[C@H](N)C(=O)O [Leucine]            top end

Pick a category. Item: N[C@@H](CS)C(=O)O [Cysteine]
midrange

Where would N=C(N)NCCC[C@H](N)C(=O)O [Arginine] land among the classes by reported Permeability of each amino acid?
midrange

The entry to classify is C[C@H](N)C(=O)O [Alanine] ; which class holds it?
bottom end

Class? Entry: CC(C)[C@H](N)C(=O)O [Valine]
midrange
